Target: T1, human PACAP27 (human, C-terminal leucine is amidated; 125I-labelled in Example 10)
T1 peptide: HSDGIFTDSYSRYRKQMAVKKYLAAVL
Assay: SPR, Ab immobilised
observable: Kd

Known results for binders:
binder | Kd
anti-PACAP antibody Ab16 (antibody, human IgG1, kappa, N297A, V domains shown, full-length rabbit/human chimeric antibody) VH: QSVEESGGRLVTPGTPLTLTCTVSGFSLSSAAMSWVRQAPGKGLEWIGIIDDSGNTYYASWAKARFTISKTSSTTVDLKMTSPTTEDTATYFCARGGGEFFIWGPGTLVTVSS VL: DPVLTQTPSSVSAAVGGTVTINCQSSQSVYNNKWLSWYQQKPGQSPKFLIYQASNLASGVPSRFKGSGSGTQFTLTISDLECDDGATYYCAGGYRGNVCGFGGGTEVVVKR | 0.035 nM
anti-PACAP antibody Ab1 (antibody, human IgG1, kappa, N297A, V domains shown, full-length rabbit/human chimeric antibody) VH: QSVEESGGRLVTPGTPLTLTCTVSGFSLSSAVMNWVRQAPGKGLEWIGSIVASGTTYYASWANGRFTISKTSSTTMDLKMTSPTTEDTATYFCARGGGEFFIWGPGTLVTVSS VL: DPVMTQTPSSTSAAVGGTVTISCQSSESVYSNYLSWYQQKPGQPPNFLIYQASNLASGVPSRFKGSGSGTQFTLTITDLECDDAATYYCAGGYSENIVGFGGGTEVVVKR | ≤ 0.1 nM
anti-PACAP antibody Ab14 (antibody, human IgG1, kappa, N297A, V domains shown, full-length rabbit/human chimeric antibody) VH: QSVEASGGRLVTPGTPLTLTCTVSGFSLSSAAMNWVRQAPGKGLEWIGFIEYSKNIVYASWAKGRFTISKVSSTTVDLKMTSPTTEDTATYFCARGGGEFFIWGQGTLVTVSS VL: AQVLTQTPSSVSAAVGGTVTINCQSSQSVYSNNRLSYYQQKPGQPPKLLIYEASSLAYGVPSRFKGSGSGTQFTLTISDLECDDAATYYCAGAYSNSIYSFGGGTEVVVKR | 0.074 nM

Now for a further binder.
For anti-PACAP antibody Ab3 (antibody, human IgG1, kappa, N297A, V domains shown, full-length rabbit/human chimeric antibody) VH: QEQLVESGGGLVQPEGSLTLTCTASGFSFSSSDYMCWVRQAPGKGLEWIGCIDAGSSGDTYFASWAKGRFTISKTSSTTVTLQMTSLTAADTATYFCARHLYGSITFAFGLWGQGTLVTVSS VL: AAVLTQTPSPVSAAVGGTVTINCQASQSIGSDLAWYQQKPGQPPKLLIYDASTLASGVPSRFSGSGSGTQFTLTISGVQCDDAATYYCQGTYYSSGWYTAFGGGTEVVVKR , write its Kd. 0.37 nM
